Where these numbers come from: ChEMBL document CHEMBL2346524

- Experimental Target: Epidermal growth factor receptor (Homo sapiens)
- Sequence (P00533 whole entry, the tested form may be a part): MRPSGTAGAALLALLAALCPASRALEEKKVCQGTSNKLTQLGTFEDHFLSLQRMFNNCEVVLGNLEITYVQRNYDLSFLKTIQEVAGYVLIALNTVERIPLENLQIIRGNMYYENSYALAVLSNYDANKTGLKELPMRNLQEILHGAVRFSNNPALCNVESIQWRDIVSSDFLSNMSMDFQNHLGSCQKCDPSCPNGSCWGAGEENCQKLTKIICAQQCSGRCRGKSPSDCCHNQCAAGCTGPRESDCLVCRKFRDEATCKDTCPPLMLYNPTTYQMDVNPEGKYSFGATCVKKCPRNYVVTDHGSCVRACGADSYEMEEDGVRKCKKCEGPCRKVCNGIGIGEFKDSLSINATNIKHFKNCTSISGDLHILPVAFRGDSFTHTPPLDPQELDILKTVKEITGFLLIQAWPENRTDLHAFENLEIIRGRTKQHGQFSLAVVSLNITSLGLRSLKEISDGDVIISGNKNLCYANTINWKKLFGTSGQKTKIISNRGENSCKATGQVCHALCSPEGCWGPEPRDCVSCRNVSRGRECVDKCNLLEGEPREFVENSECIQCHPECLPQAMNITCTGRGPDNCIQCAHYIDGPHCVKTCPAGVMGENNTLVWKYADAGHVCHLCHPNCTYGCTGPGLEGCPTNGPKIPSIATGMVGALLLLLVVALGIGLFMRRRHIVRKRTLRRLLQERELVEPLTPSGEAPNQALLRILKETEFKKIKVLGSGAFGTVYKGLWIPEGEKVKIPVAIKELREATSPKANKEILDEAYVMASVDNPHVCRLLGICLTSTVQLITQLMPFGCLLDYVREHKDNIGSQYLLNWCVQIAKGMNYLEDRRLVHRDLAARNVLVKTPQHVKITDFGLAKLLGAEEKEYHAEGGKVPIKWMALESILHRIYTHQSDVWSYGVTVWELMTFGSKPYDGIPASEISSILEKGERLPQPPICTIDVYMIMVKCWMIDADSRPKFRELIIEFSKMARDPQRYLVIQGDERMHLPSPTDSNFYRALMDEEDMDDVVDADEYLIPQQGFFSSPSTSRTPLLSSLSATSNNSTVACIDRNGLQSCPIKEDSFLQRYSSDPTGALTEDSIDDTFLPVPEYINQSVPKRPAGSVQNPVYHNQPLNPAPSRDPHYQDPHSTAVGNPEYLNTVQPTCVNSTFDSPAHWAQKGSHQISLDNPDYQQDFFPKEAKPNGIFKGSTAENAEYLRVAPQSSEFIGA
- Experiment Description: Inhibition of human wild type GST-tagged EGFR kinase domain expressed in Sf9 cells by luminescence assay
Quantity Measured: IC50 (nM)

Please review the entries below; each comes with its answer.
Smiles Input	IC50 [nM]
CC(=O)Nc1ccc(-c2c(-c3ccccc3)oc3ncnc(N[C@H](CO)c4ccccc4)c23)cc1	179
CN(C)CCC(=O)Nc1cccc(-c2c(-c3ccccc3)oc3ncnc(N[C@H](CO)c4ccccc4)c23)c1	8
CN(C)CCCCCC(=O)Nc1cccc(-c2c(-c3ccccc3)oc3ncnc(N[C@H](CO)c4ccccc4)c23)c1	4330
C[C@@H](Nc1ncnc2oc(-c3ccccc3)c(-c3ccccc3)c12)c1ccccc1	2990
COC(=O)[C@@H](Nc1ncnc2oc(-c3ccccc3)c(-c3ccccc3)c12)c1ccccc1	7890

[I] OC[C@@H](Nc1ncnc2oc(-c3ccccc3)c(-c3ccccc3)c12)c1ccccc1
[II] CN(C)CCCC(=O)Nc1cccc(-c2c(-c3ccccc3)oc3ncnc(N[C@H](CO)c4ccccc4)c23)c1
Exam item: Lab notebook, comparison: I versus II , higher IC50 goes to which? In your reply, give the label of the chosen option.
Marked response: I
